test: Antitumor activity in vivo against the 6C3HED lymphosarcoma, dosed for 8 days at 300 mg/kg; details: Mus musculus, 192 h
property label: inhibition in vivo at 300 mg/kg (%)
Form entry: value (%) — number only.

Look over these answered cases.
- compound structure string: "COc1ccc(S(=O)(=O)NC(=O)Nc2ccc(Cl)cc2)cc1OC"
  property label: "inhibition in vivo at 300 mg/kg"
  measure unit: "%"
  data value: 43
- compound structure string: "O=C(NCCc1ccccc1)NS(=O)(=O)c1ccc2c(c1)CCC2"
  property label: "inhibition in vivo at 300 mg/kg"
  measure unit: "%"
  data value: 0
- compound structure string: "Cc1ccc(S(=O)(=O)NC(=O)Nc2cccnc2)cc1"
  property label: "inhibition in vivo at 300 mg/kg"
  measure unit: "%"
  data value: 1
- compound structure string: "CCCCOC(=O)c1ccc(NC(=O)NS(=O)(=O)c2ccc(C)cc2)cc1"
  property label: "inhibition in vivo at 300 mg/kg"
  measure unit: "%"
  data value: 0
- compound structure string: "Cc1ccc(S(=O)(=O)NC(=O)Nc2ccc(C#N)cc2)cc1"
  property label: "inhibition in vivo at 300 mg/kg"
  measure unit: "%"
  data value: 31

// next entry
IN: Which value of inhibition in vivo at 300 mg/kg has been reported for Cc1ccc(S(=O)(=O)NC(=O)Oc2ccc(Cl)cc2)cc1 in the records?
OUT: 43
